The measurements presented in this section are drawn from PubChem BioAssay (NCI).

# Test system: SW-620 colon
# method: NCI-60 one-dose screen, 48 h
# conditionsUsed: 10 µM
The panel holds about 83,000 compounds, 20% with a hit somewhere; the sample as a whole holds those more often. Activity calls are given as the source filed them. How the source made its calls: active means growth percent below 10; inactive means the rest.
Possible outcomes: Y (active), N (inactive)

compound	system	class
CC(O)COc1ccc(-c2ccccc2)cc1 (stereo unspecified)	SW-620 colon	N
C[N+](C)(C)C(=O)c1ccccc1	SW-620 colon	N
CO[C@H]1C[C@@H]2CC[C@@H](C)[C@@](O)(O2)C(=O)C(=O)N2CCCC[C@H]2C(=O)O[C@H]([C@H](C)C[C@@H]2CC[C@@H](O)[C@H](OC)C2)CC(=O)[C@H](C)C=C(C)[C@@H](O)[C@@H](OC)C(=O)[C@H](C)C[C@H](C)/C=C/C=C/C=C1C	SW-620 colon	N
c1cc2cccc3c4cccc5cccc(c(c1)c23)c54	SW-620 colon	N
CNc1nc(NC)c2cn[nH]c2n1	SW-620 colon	N
O=c1[nH]cc(Cl)cc1O	SW-620 colon	N
COc1cc(/C=C/C(=O)c2ccccc2)cc(OC)c1OC	SW-620 colon	N
CN(C)CCN(C)CC(C)(C)C(=O)/C=C/c1ccc(Cl)cc1	SW-620 colon	Y
Nc1ccc(NC(=O)c2cccc(N)c2)cc1	SW-620 colon	N
Cc1cc2ccccc2c(O)c1C#N	SW-620 colon	N
CCOC(=O)CCCC(=O)OCC	SW-620 colon	N
